Test system: T. foetus strain kv1 trophozoites
measurement description: Cell culture assay, in vitro growth of T. foetus
Type: cell-based, Tritrichomonas foetus
applied conditions: Tritrichomonas foetus; Table 1; Diamond's TYM medium, 37° C., DMSO at or below 1%; read-out: ED50, in vitro growth of T. foetus
Below, each of the molecules is paired with its reported pIC50 value.
Formally, pIC50 is defined as -log10 of the concentration c, with c in mol/L.

Cc1c(NC(=O)c2ccc3c(c2)C(=O)NC3=O)cccc1OCc1ccccc1 :: 5.41
O=C(Nc1cccc(OCc2ccccc2I)c1)c1ccc2c(c1)C(=O)NC2=O :: 5.29
CCN(CC)S(=O)(=O)c1ccc(OC)c(NC(=O)c2ccc3c(c2)C(=O)NC3=O)c1 :: 4.41
O=C(Nc1cccc(OCc2ccc(Cl)c(Cl)c2)c1)c1ccc2c(c1)C(=O)NC2=O :: 5.34

Then there is this molecule:
Assign pIC50 to the following record: "O=C(Nc1cccc(OCc2ccccc2)c1)c1ccc2c(c1)C(=O)NC2=O"
4.72

---

assayed system: T. foetus HGXPRT (Tritrichomonas foetus, UniProt P51900)
Sequence (P51900 whole entry): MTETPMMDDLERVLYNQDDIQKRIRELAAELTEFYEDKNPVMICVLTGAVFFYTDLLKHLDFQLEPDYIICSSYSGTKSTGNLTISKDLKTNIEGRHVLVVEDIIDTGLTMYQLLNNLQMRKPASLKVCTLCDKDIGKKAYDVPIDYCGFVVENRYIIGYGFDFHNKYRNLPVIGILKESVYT
measurement description: Spectrophotometric enzyme assay, recombinant T. foetus HGXPRT
applied conditions: competitive with respect to guanine; read-out: K (inhibition constant) with respect to guanine, T. foetus HGXPRT
observation type: pKi
In textbook form, pKi equals minus log to base ten of the concentration in mol/L.

Please indicate pKi recorded for "O=C(Nc1cccc(OCc2ccc(Br)cc2)c1)c1ccc2c(c1)C(=O)NC2=O"
6.31

---

assayed system: T. foetus HGXPRT (Tritrichomonas foetus)
Construct: made in house; host or cells: E. coli strain SØ606 transformed with pBTfprt
measurement description: Spectrophotometric enzyme assay, recombinant T. foetus HGXPRT
Assay type: biochemical
applied conditions: Table 1; 10% DMSO; read-out: IC50, Inhibition of T. foetus HGXPRT
observation type: IC50 (µM)
Use µM as the unit, but write only the number.

Solved entries:
Cc1cc(COc2ccccc2)cc(NC(=O)c2ccc3c(c2)C(=O)NC3=O)c1 :: 28
CCN(CC)S(=O)(=O)c1ccc(OC)c(NC(=O)c2ccc3c(c2)C(=O)NC3=O)c1 :: 33
O=C(Nc1cccc(OCc2c(Cl)cccc2Cl)c1)c1ccc2c(c1)C(=O)NC2=O :: 12.1
O=C(Nc1cc(OCc2ccccc2)ccc1Cl)c1ccc2c(c1)C(=O)NC2=O :: 8

Report measured IC50; entry is "CN(Cc1ccccc1NC(=O)c1ccc2c(c1)C(=O)NC2=O)C1CCCCC1"
53

Tell us which IC50 value is on record for "COc1cc(COc2cccc(NC(=O)c3ccc4c(c3)C(=O)NC4=O)c2)cc(OC)c1"
8.2

Provide measured IC50 value, entry: "O=C(Nc1cccc(OCc2ccc(Br)cc2)c1)c1ccc2c(c1)C(=O)NC2=O"
1.5

// Input: "Cc1ccc(COc2cccc(NC(=O)c3ccc4c(c3)C(=O)NC4=O)c2)cc1" . Output its IC50 only.
1.7

Please give measured IC50 of the following entry: "Cc1c(NC(=O)c2ccc3c(c2)C(=O)NC3=O)cccc1OCc1ccc(Cl)c(Cl)c1"
9.3

Give the reported IC50 for this compound. "Cc1c(NC(=O)c2ccc3c(c2)C(=O)NC3=O)cccc1OCc1ccc(Br)cc1"
5.2

Return value of IC50 for input "O=C(Nc1cccc(OCc2cccc(I)c2)c1)c1ccc2c(c1)C(=O)NC2=O" , no commentary.
8.9

Give IC50 for the following compound: "O=C(Nc1cccc(OCc2ccccc2I)c1)c1ccc2c(c1)C(=O)NC2=O"
4.3

Identify measured IC50 corresponding to "O=C(Nc1cccc(OCc2cc(Cl)ccc2Cl)c1)c1ccc2c(c1)C(=O)NC2=O"
7.1

Provide measured IC50 value, entry: "Cc1c(NC(=O)c2ccc3c(c2)C(=O)NC3=O)cccc1OCc1ccccc1"
3

Answer with the recorded IC50 for the compound listed here: "O=C(Nc1cccc(OCc2ccc(Cl)c(Cl)c2)c1)c1ccc2c(c1)C(=O)NC2=O"
3.5

---

assayed system: human HGPRT (Homo sapiens)
Sequence (P00492 whole entry): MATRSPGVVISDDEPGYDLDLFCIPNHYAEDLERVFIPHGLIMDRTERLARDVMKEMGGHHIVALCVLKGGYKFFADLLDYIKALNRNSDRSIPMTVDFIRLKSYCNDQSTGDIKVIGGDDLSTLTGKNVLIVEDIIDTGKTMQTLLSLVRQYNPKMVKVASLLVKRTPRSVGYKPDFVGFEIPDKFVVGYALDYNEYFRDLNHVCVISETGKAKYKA
measurement description: Spectrophotometric enzyme assay, recombinant human HGPRT
applied conditions: Table 2; read-out: IC50, Human HGXPRT
compounds and their reported IC50
Report as a plain number; the unit µM is understood.

O=C(Nc1cccc(OCc2ccc(Br)cc2)c1)c1ccc2c(c1)C(=O)NC2=O :: 45

Provide IC50, recorded with human HGPRT (Homo sapiens), of "O=C(Nc1cccc(OCc2ccc(Cl)c(Cl)c2)c1)c1ccc2c(c1)C(=O)NC2=O"
24

Ref: patent US6221877A
